Test system: DeltatarO mutant
protocol_notes: S. aureus survival, RN4220 and DeltatarO strains – OD600, teichoic acid synthesis inhibitors, primary screen (AID 463173)
test_conditions: S. aureus RN4220 wild type/DeltatarO growth, OD600, 18 h, hits give low values, screened at 18.75 µg/mL (by protocol)
Hit rate of the full screen: of about 52,000 compounds, about 4,300 (8.3%) were called active. This is one part of a sample in which actives are shown more often than they occur.
quantity_measured: survival (%)
The reply should contain only the number, in %.

Examples with answers:
INSERT INTO measurements (molecule, result) VALUES
  ('CN1C(=O)SC(Nc2ccccc2)C1=O (stereo unspecified)', 65),
  ('O=C(CN1C(=O)CSc2ccc(S(=O)(=O)N3CCCCC3)cc21)NCc1ccc(F)cc1Cl', 79),
  ('COc1ccc(OC)c(NC(=O)CSc2c3c(nc4cc(Cl)ccc24)CCCC3)c1', 86),
  ('Cc1cc(C)c(/C=C/c2onc(C)c2S(=O)(=O)N2CCC(C(=O)Nc3ccc(Cl)c(C(F)(F)F)c3)CC2)c(C)c1', 67),
  ('Cc1c(NC(=O)c2cc(=O)c3ccccc3o2)c(=O)n(-c2ccccc2)n1C', 67),
  ('COc1ccc(N2CCN(C(=O)CSc3c4c(nc5ccc(Cl)cc35)CCCC4)CC2)cc1', 35),
  ('COC(=O)c1cccc(CN2C(=O)SC(Nc3ccccc3C)C2=O)c1 (stereo unspecified)', 133),
  ('O=C(Cn1c(=O)nc(-c2ccccc2)c2cc(Cl)ccc21)N1CCN(c2ccc(F)cc2)CC1', 99);

# input // returns reported survival for input CC(C)C(=O)Nc1c(C(=O)N2CCN(c3ccccc3F)CC2)oc2ccccc12
# output 58

# input Same lookup for CCOC(=O)c1c(NC(=O)c2cc(Cl)ccc2Cl)sc2c1CCCC2 , please.
# output 72

# input Same lookup for COc1cc(OC)c(NC(=O)CCc2c(C)nc3ncnn3c2C)cc1Cl , please.
# output 97

====

Listed here: items and their measured survival.
Test system: DeltatarO mutant
protocol_notes: S. aureus survival, RN4220 and DeltatarO strains – OD600, teichoic acid synthesis inhibitors, primary screen (AID 463173)
test_conditions: S. aureus RN4220 wild type/DeltatarO growth, OD600, 18 h, hits give low values, screened at 18.75 µg/mL (by protocol)
Screen size: about 52,000 compounds; about 4,300 (8.3%) were called active. Many of the other results were omitted from the sample, so actives are more common in it than they were.
The reply should contain only the number, in %.

INSERT INTO results (compound, result) VALUES
  ('Cc1c(Cl)ccc2sc(N3CCN(C(=O)CS(=O)(=O)c4ccccc4)CC3)nc12', 106),
  ('COc1ccc(-c2noc(COc3ccc(Br)cc3C)n2)cc1OC', 33),
  ('COc1ccc(NC(=O)C2CCN(S(=O)(=O)c3c(C)noc3/C=C/c3ccc(C)cc3)CC2)cc1Cl', 82);

# input // returns reported survival for input COc1ccc(OC)c2sc(N3CCN(C(=O)CCS(=O)(=O)c4ccc(F)cc4)CC3)nc12
# output 94

# input Same lookup for COc1cc(C(=O)Nc2cc(C)ccc2OCc2cc(=O)n3c(C)csc3n2)cc(OC)c1OC , please.
# output 58

# input Same lookup for COc1cccc(/C=C(\C#N)C(=O)Nc2ccc(NC(C)=O)cc2)c1OC , please.
# output 89

# input Same lookup for O=C1CC(c2nc3ccccc3n2CCCCOc2ccccc2)CN1c1ccccc1Cl (stereo not drawn) , please.
# output 58

# input Same lookup for COc1cccc2sc(N3CCN(C(=O)CS(=O)(=O)c4ccc(Cl)cc4)CC3)nc12 , please.
# output -4

# input Same lookup for CC(C)N(C(=O)c1cc2c(Cl)nc3ccccc3c2s1)C1CCCCC1 , please.
# output 16

====

Listed here: items and their measured survival.
System: DeltatarO mutant
protocol_notes: S. aureus survival, RN4220 and DeltatarO strains – OD600, teichoic acid synthesis inhibitors, primary screen (AID 463173)
test_conditions: S. aureus RN4220 wild type/DeltatarO growth, OD600, 18 h, hits give low values, screened at 18.75 µg/mL (by protocol)
In all, about 52,000 compounds went through this assay and about 4,300 (8.3%) were called active. The entries come from a sample that favours actives as a whole.

# input // returns reported survival for input CC(=O)Nc1c(C(=O)Nc2ccccc2F)oc2ccccc12
# output 119% (inactive)

# input Same lookup for COc1ccccc1C(=O)Nc1c(C(=O)NC(C)(C)C)oc2ccccc12 , please.
# output 99% (inactive)

# input Same lookup for COc1ccccc1NC(=O)c1oc2ccccc2c1NC(=O)c1c(F)cccc1F , please.
# output 51% (inactive)

# input Same lookup for CCOc1ccc(NC(=O)c2oc3ccccc3c2NC(=O)C(C)(C)C)cc1 , please.
# output 38% (active)

# input Same lookup for CCOc1ccc(-n2c(=O)c3c(C)c(C)sc3n(Cc3ccccc3C)c2=O)cc1 , please.
# output 85% (inactive)

# input Same lookup for CCc1c(C)sc2c1CCN(C(=O)Nc1ccc(F)c(Cl)c1)C2c1ccc(F)cc1 (centres undefined) , please.
# output 46% (active)

# input Same lookup for CCCN(CCC)C(=O)Cn1c(=O)n(-c2ccc(CC)cc2)c(=O)c2c3c(sc21)CCC3 , please.
# output 110% (inactive)

# input Same lookup for O=C(c1ccc(F)cc1)N1CCN(CCc2ccncc2)CC1 , please.
# output 84% (inactive)

====

Tested on: DeltatarO mutant
protocol_notes: S. aureus survival, RN4220 and DeltatarO strains – OD600, teichoic acid synthesis inhibitors, primary screen (AID 463173)
test_conditions: S. aureus RN4220 wild type/DeltatarO growth, OD600, 18 h, hits give low values, screened at 18.75 µg/mL (by protocol)
Out of some 52,000 compounds screened, about 4,300 (8.3%) were called active. Many of the other results were omitted from the sample, so actives are more common in it than they were.
Listed here: items and their measured survival.
The reply should contain only the number, in %.

Examples with answers:
INSERT INTO measurements (molecule, quantity_measured, result) VALUES
  ('CCc1nn(CCCC(=O)NCc2ccccc2OC)c(=O)c2cc3occc3n12', 'survival', 84),
  ('CCOC(=O)c1ccc(NC(=O)CN2C(=O)C(C)(C)c3ccccc32)cc1', 'survival', 115),
  ('Cc1cccc(C)c1-n1ncc(C(=O)N2CCN(c3ncccn3)CC2)c1C1CCN(C(=O)OC(C)(C)C)CC1', 'survival', 95),
  ('COc1cccc(S(=O)(=O)N2CCN(Cc3ccc4c(c3)OCO4)CC2)c1', 'survival', 75),
  ('O=C(NC1(C(F)(F)F)NC(=O)N(CCc2ccccc2)C1=O)c1ccccc1F (stereo unspecified)', 'survival', 76);

# input Lab request: please report survival under test system DeltatarO mutant for Cc1cccc(N2CCN(C(=O)Cn3nc(C)n4cccc4c3=O)CC2C)c1 (stereo unspecified)
# output 90

# input Same lookup for O=C(NCc1ccc(F)cc1)c1cnc(N2CCOCC2)c2ccccc12 , please.
# output 95

# input Same lookup for COc1ccccc1-c1nnc(C2CCN(C(=O)c3ccc(C)cc3)CC2)o1 , please.
# output 91

# input Same lookup for NC(=O)CN1CCN(Cc2ccc3c(c2)OCO3)CC1 , please.
# output 76

# input Same lookup for O=C(NCCCN1CCN(c2ccccc2)CC1)c1nnc(Cc2c(F)cccc2Cl)o1 , please.
# output 71

# input Same lookup for COc1ccc(S(=O)(=O)N2CCN(Cc3nc4ccc(C)cc4o3)CC2)cc1OC , please.
# output 84

====

Tested on: DeltatarO mutant
protocol_notes: S. aureus survival, RN4220 and DeltatarO strains – OD600, teichoic acid synthesis inhibitors, primary screen (AID 463173)
test_conditions: S. aureus RN4220 wild type/DeltatarO growth, OD600, 18 h, screened at 18.75 µg/mL (by protocol)
Screen size: about 52,000 compounds; about 4,300 (8.3%) were called active. No stated cut-off is given here; in the data, active means survival mostly below about 52% (no sharp cut-off); inactive means mostly above about 56%. This excerpt belongs to a sample that is enriched for actives.
In this exercise, the only acceptable responses are active, inactive

Recorded results for 2 compounds are shown here.
INSERT INTO assay_data (compound, classification) VALUES
  ('Cc1oc(-c2ccc(Cl)cc2)nc1Cn1c(=O)cc(C)c2c(C)nn(-c3cccc(F)c3)c21', 'inactive'),
  ('O=C(Nc1ccc(OC(F)(F)F)cc1)C1CCCN(S(=O)(=O)c2cccc3nonc23)C1 (configuration not stated)', 'inactive');

# input Hi team, can someone confirm the assay call for O=C(NCCSCc1cccc(Cl)c1)C1CCN(S(=O)(=O)Cc2ccccc2)CC1 ?
# output inactive

# input Same lookup for CCCCN(CC)Cc1ccc(CNS(=O)(=O)c2cc3c(cc2Cl)NC(=O)CO3)o1 , please.
# output active

====

Tested on: DeltatarO mutant
protocol_notes: S. aureus survival, RN4220 and DeltatarO strains – OD600, teichoic acid synthesis inhibitors, primary screen (AID 463173)
test_conditions: S. aureus RN4220 wild type/DeltatarO growth, OD600, 18 h, screened at 18.75 µg/mL (by protocol)
About 4,300 (8.3%) of roughly 52,000 compounds were called active. Rule as the data show it: active = survival mostly below about 52% (no sharp cut-off); inactive = mostly above about 56%. The sample holds actives, similar compounds and a random draw of the others, so the mix is not that of the screen.
In this exercise, the only acceptable responses are yes (1) = active, no (0) = inactive

Recorded results for 2 compounds are shown here.
INSERT INTO assay_data (compound, target_or_test_system, classification) VALUES
  ('COc1ccc(CNC(=O)C(C)n2ccc3cc(S(=O)(=O)N4CCCC4)ccc32)cc1OC (stereo not drawn)', 'DeltatarO mutant', 'no (0)'),
  ('O=C(NC1CCCC1)c1ccc2c(c1)N(Cc1ccc(F)cc1)C(=O)c1ccccc1S2', 'DeltatarO mutant', 'no (0)');

# input Hi team, can someone confirm the assay call for CCc1cccc(NC(=O)C2CCCN(S(=O)(=O)c3cccs3)C2)c1 (stereo not drawn) ?
# output no (0)

# input Same lookup for COc1ccccc1N1CCN(C(=O)c2cnc(N3CCOCC3)c3ccccc23)CC1 , please.
# output no (0)

# input Same lookup for Cc1ccc(NC(=O)C2CCC(CNS(=O)(=O)c3cccc4nsnc34)CC2)c(Cl)c1 (stereo not drawn) , please.
# output yes (1)

# input Same lookup for Cc1cc(C)c(NC(=O)Cn2nnc(C(=O)NCc3cccs3)c2N)c(C)c1 , please.
# output no (0)

# input Same lookup for COCCNC(=O)C(=O)NCC(c1ccc2c(c1)OCO2)N1CCOCC1 (stereo not drawn) , please.
# output yes (1)

# input Same lookup for Cc1ccc(S(=O)(=O)Nc2cc3c(C(=O)OCc4ccccc4)c(C)oc3c3ccccc23)c(C)c1 , please.
# output no (0)

// data source = PubChem BioAssay AID463173
